These data points were gathered from ChEMBL document CHEMBL5252631.

Reported Activity values are given for each entry in this list.
# assay-comment: Substrate activity at ADH101 (unknown origin) assessed as specific enzyme activity using NADH as cofactor at 2.5 to 10 mM measured for 30 mins in presence of 20% hexane-Tris HCL buffer by UV-Vis spectroscopy analysis
# protocol-conditions: Homo sapiens, dose 2.5-10 mM
I only need the number, in nmol/min/mg, no unit after it.

Example cases with answers are listed next.
| test-smiles | observed-result |
| --- | --- |
| CC(=O)C1CC1 | 82.8 |
| COc1cc(OC)cc(C(C)=O)c1 | 59.2 |
| CCCCCCCCC(C)=O | 25.7 |
| CC(=O)c1ccc(I)cc1 | 51.3 |

Record request: Activity value, item CNCC(=O)c1cccc(O)c1 12.4

Next entry: CCOc1ccc(C(C)=O)cc1 19.9

Next entry: CC(=O)c1ccc2c(c1)OCO2 34.2

Next entry: CC(=O)c1cc(C(F)(F)F)cc(C(F)(F)F)c1 17.4

Next entry: CC(=O)CCc1ccccc1 95.7

Next entry: COc1ccc(C(C)=O)cc1 24.6

Next entry: CC(=O)c1ccccc1Br 38

Next entry: CC(=O)c1ccc(C(F)(F)F)nc1 80.9

====

Reported Activity values are given for each entry in this list.
# assay-comment: Substrate activity at ADH105 (unknown origin) assessed as specific enzyme activity using NADH as cofactor at 2.5 to 10 mM measured for 30 mins in presence of Tris HCL buffer by UV-Vis spectroscopy analysis
# protocol-conditions: Homo sapiens, dose 2.5-10 mM
Put down the number, then write its unit next to it.

| test-smiles | observed-result |
| --- | --- |
| O=c1[nH]c(=O)c2nc[nH]c2[nH]1 | 9.28 nmol/min/mg |
| CC(=O)c1cccnc1 | 121 nmol/min/mg |
| CC(=O)c1ccc(Cl)nc1 | 371 nmol/min/mg |
| CC(=O)c1cccc(O)c1 | 82.4 nmol/min/mg |
| CC(=O)c1ccc2c(c1)OCO2 | 70.1 nmol/min/mg |

Record request: Activity value, item CCc1ccc(OC)c(C(C)=O)c1 14.1 nmol/min/mg

Next entry: CNCC(=O)c1cccc(O)c1 20.8 nmol/min/mg

Next entry: CC(=O)/C=C/c1ccccc1 6.97 nmol/min/mg

Next entry: O=C1CN2CCC1CC2 13 nmol/min/mg

Next entry: CC(=O)c1cccc(Br)c1 1.9 nmol/min/mg

====

# assay-comment: Substrate activity at ADH150 (unknown origin) assessed as specific enzyme activity using NADPH as cofactor at 2.5 to 10 mM measured for 30 mins in presence of Tris HCL buffer by UV-Vis spectroscopy analysis
# protocol-conditions: Homo sapiens, dose 2.5-10 mM
Everything with Activity lower than 10 nmol/min/mg is Not satisfied; everything else, including exactly 10 nmol/min/mg, is Satisfied.

Before answering, review these 4 worked examples.
| test-smiles | class-assignment |
| --- | --- |
| COc1ccc2c(c1)CCCC2=O | Not satisfied |
| CC(C)(C)NCC(=O)c1cc(Cl)c(N)c(Cl)c1 | Not satisfied |
| CNCC(=O)c1cccc(O)c1 | Satisfied |
| CC(=O)c1ccc(C[C@H](N)C(=O)O)cc1 | Satisfied |

Is Activity for CC(=O)c1cc[nH]n1 at or above 10 nmol/min/mg? Satisfied

Next entry: O=C(c1ccccc1)c1ccccc1 Satisfied

====

# assay-comment: Substrate activity at ADH101 (unknown origin) assessed as specific enzyme activity using NADH as cofactor at 2.5 to 10 mM measured for 30 mins in presence of Tris HCL buffer by UV-Vis spectroscopy analysis
# protocol-conditions: dose 2.5-10 mM
Reported Activity values are given for each entry in this list.
I only need the number, in nmol/min/mg, no unit after it.

| test-smiles | output-unit | Activity |
| --- | --- | --- |
| O=C(c1ccccc1)C(F)(F)F | nmol/min/mg | 9.22 |
| CC(=O)Cc1ccccc1 | nmol/min/mg | 5.98 |
| CC(=O)c1ccc(Br)cc1F | nmol/min/mg | 15.9 |

Let us examine a further case.
Record request: Activity value, item CCCCCCCCC(C)=O 39.5

====

Reported Activity values are given for each entry in this list.
# assay-comment: Substrate activity at ADH19 (unknown origin) assessed as specific enzyme activity using NADPH as cofactor at 2.5 to 10 mM measured for 30 mins in presence of Tris HCL buffer by UV-Vis spectroscopy analysis
# protocol-conditions: Homo sapiens, dose 2.5-10 mM

Example cases with answers are listed next.
| test-smiles | Activity |
| --- | --- |
| CC(C)(C)NCC(=O)c1cc(Cl)c(N)c(Cl)c1 | 10.4 nmol/min/mg |
| CC(=O)c1ccc(O)cc1 | 12.8 nmol/min/mg |
| COc1ccc2c(c1)CCCC2=O | 14.3 nmol/min/mg |
| CNCC(=O)c1cccc(O)c1 | 6.78 nmol/min/mg |
| CC(=O)c1ccc(C[C@H](N)C(=O)O)cc1 | 7.76 nmol/min/mg |

Let us examine a further case.
Record request: Activity value, item CC(=O)c1cc[nH]n1 10.3 nmol/min/mg

====

# assay-comment: Substrate activity at ADH105 (unknown origin) assessed as specific enzyme activity using NADH as cofactor at 2.5 to 10 mM measured for 30 mins in presence of 20% hexane-Tris HCL buffer by UV-Vis spectroscopy analysis
# protocol-conditions: dose 2.5-10 mM
readout-kind: log10(Activity) (log10 of the value in nmol/min/mg)
Transform log10 | Measure Activity | Unit nmol/min/mg

| test-smiles | log10(Activity) |
| --- | --- |
| CC(=O)c1ccc(Br)cc1F | 2.56 |

Record request: log10(Activity) value, item O=C1CN2CCC1CC2 1.37

Next entry: CC(=O)c1cnc2ccccc2c1 2.36

Next entry: CC(=O)c1ccc(I)cc1 2.07

Next entry: CC(=O)c1ccc(Br)cc1 2.20

Next entry: CC(=O)c1ccc(O)cc1 1.50

Next entry: CC(=O)c1cnccn1 2.27

Next entry: CC(=O)c1cccc(Br)c1 2.15

Next entry: CC(=O)c1ccccc1Br 1.60

Next entry: CC(=O)c1ccc(B2OC(C)(C)C(C)(C)O2)cc1 1.94

Next entry: CC(=O)c1cc[nH]n1 1.32

Next entry: CC(=O)c1cccnc1 2.21

====

# assay-comment: Substrate activity at ADH101 (unknown origin) assessed as specific enzyme activity using NADH as cofactor at 2.5 to 10 mM measured for 30 mins in presence of 20% hexane-Tris HCL buffer by UV-Vis spectroscopy analysis
# protocol-conditions: Homo sapiens, dose 2.5-10 mM
Everything with Activity lower than 40 nmol/min/mg is Criterion not met; everything else, including exactly 40 nmol/min/mg, is Criterion met.

Is Activity for COc1cccc(C(C)=O)c1 at or above 40 nmol/min/mg? Criterion not met

Next entry: CC(=O)C1CCCC1 Criterion met

====

Reported Activity values are given for each entry in this list.
# assay-comment: Substrate activity at ADH105 (unknown origin) assessed as specific enzyme activity using NADH as cofactor at 2.5 to 10 mM measured for 30 mins in presence of Tris HCL buffer by UV-Vis spectroscopy analysis
# protocol-conditions: Homo sapiens, dose 2.5-10 mM
I only need the number, in nmol/min/mg, no unit after it.

| test-smiles | readout-kind | output-unit | observed-result |
| --- | --- | --- | --- |
| CC(=O)c1ccc(Br)cc1 | Activity | nmol/min/mg | 56.1 |
| CCOc1ccc(C(C)=O)cc1 | Activity | nmol/min/mg | 81.1 |
| CC(=O)C1CCCCC1 | Activity | nmol/min/mg | 233 |

Let us examine a further case.
Record request: Activity value, item CCCCCCCCC(C)=O 8.95

====

# assay-comment: Substrate activity at ADH101 (unknown origin) assessed as specific enzyme activity using NADH as cofactor at 2.5 to 10 mM measured for 30 mins in presence of Tris HCL buffer by UV-Vis spectroscopy analysis
# protocol-conditions: dose 2.5-10 mM
Reported log10 of Activity values are given for each entry in this list.
Transform log10 | Measure Activity | Unit nmol/min/mg

| test-smiles | readout-kind | observed-result |
| --- | --- | --- |
| CC(=O)c1ccc2ccccc2c1 | log10 of Activity | 0.89 |

Record request: log10 of Activity value, item CC(=O)c1ccc(Br)cc1 1.58

Next entry: CC(=O)c1ccc([N+](=O)[O-])cc1 2.00

Next entry: CC(=O)/C=C/c1ccccc1 1.78

Next entry: CC(=O)c1cc(C(F)(F)F)cc(C(F)(F)F)c1 0.65

Next entry: CC(=O)c1ccc2c(c1)OCO2 1.25

Next entry: CC(=O)c1cccc(O)c1 0.68

Next entry: CC(=O)c1ccccc1O 1.05

Next entry: CC(=O)CCc1ccccc1 2.04

Next entry: O=C(CCl)c1ccc(F)c(F)c1 1.92

Next entry: O=C(CBr)c1ccccc1 1.65

Next entry: CCc1ccc(OC)c(C(C)=O)c1 1.70

Next entry: CC(=O)c1cccnc1 0.98

Next entry: COc1ccc2c(c1)CCCC2=O 0.84

Next entry: COc1cc(C(C)=O)cc(OC)c1OC 1.07
